# study.system: furin, P09958;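 also: purified furin at 1:10 enzyme:substrate in 50 mM HEPES pH 7.5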
# Sequence (P09958 whole entry): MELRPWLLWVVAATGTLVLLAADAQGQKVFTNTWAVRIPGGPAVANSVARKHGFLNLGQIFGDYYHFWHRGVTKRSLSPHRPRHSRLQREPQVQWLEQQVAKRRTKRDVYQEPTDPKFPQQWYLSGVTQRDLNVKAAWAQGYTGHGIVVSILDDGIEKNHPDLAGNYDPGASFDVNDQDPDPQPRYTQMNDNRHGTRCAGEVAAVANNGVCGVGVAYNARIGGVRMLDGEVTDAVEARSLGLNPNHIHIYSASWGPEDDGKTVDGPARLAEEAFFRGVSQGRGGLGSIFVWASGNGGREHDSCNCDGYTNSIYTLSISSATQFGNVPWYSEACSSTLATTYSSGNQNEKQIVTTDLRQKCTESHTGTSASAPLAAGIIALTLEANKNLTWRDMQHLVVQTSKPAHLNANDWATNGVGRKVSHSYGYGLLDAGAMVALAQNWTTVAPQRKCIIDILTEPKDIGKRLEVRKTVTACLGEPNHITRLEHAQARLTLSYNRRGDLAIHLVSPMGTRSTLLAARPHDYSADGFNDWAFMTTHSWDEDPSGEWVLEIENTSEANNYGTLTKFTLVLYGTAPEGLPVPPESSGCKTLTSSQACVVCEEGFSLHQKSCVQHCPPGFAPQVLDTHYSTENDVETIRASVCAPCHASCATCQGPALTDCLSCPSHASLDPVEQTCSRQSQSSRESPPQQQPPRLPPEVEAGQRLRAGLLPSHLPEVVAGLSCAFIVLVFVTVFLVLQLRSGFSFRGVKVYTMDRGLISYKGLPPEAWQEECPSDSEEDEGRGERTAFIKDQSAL
# test.name: furin cleavage Z-score vs untreated control; higher = more cleavage, active = 3.5 or more, inactive = 1 or less, 8 variable residues between constant flanks
# particulars: 15 min
Some of the results follow. No count for the full screen is at hand.
# label = bin(measured furin cleavage Z-score), where bins are group A: < -0.04; group B: ≥ -0.04 and < 2; group C: ≥ 2

1) CAREKKSASWAGNASASA [FS-3244]; group A
2) CAAERRHYRPAGNASASA [FS-969]; group B
3) CAAESRACRGAGNASASA [FS-742]; group A
4) CADELAAKLVAGNASASA [HC861]; group B
5) CARKSRDMEIAGNASASA [FS-2980]; group A
6) CASLLRHHNLAGNASASA [HC1385]; group B
7) CAGWFTAGYSAGNASASA [HC1645]; group A
8) CAQPEYDLELAGNASASA [HC1548]; group B
9) CACRARRRRLAGNASASA [FS-16]; group C
10) CATTPCSSSWAGNASASA [HC1897]; group B
11) CAAERRRRRGAGNASASA [FS-2]; group C
12) CACHRRMRRGAGNASASA [FS-404]; group C
13) CARKPRPLDPAGNASASA [FS-2563]; group B
14) CAVVTCSMSYAGNASASA [HC2038]; group B
15) CAIQARAKRVAGNASASA [FS-256]; group C
